The measurements presented in this section are drawn from PubChem BioAssay.

- run description: caspase-8 TRAIL sensitization, hit retest, confirmation, cell-based, NB7+caspase-8, with/without TRAIL, luminescence panel (AID 651596)
- condition description: NB7 neuroblastoma + caspase-8, without TRAIL, luminescence viability, without TRAIL, mean of runs, at 10 µM
Would you kindly list activity for each of these compounds?
The figure you give is taken to be in %; do not add the unit.

Could you share which activity value was measured for `CC1(C)N=C(N)N=C(N)N1c1ccc(Oc2ccc(Cl)cc2)c(Cl)c1` ?
51

Could you share which activity value was measured for `Cc1ccc2nc(NC(=O)c3cccs3)sc2c1` ?
71.2

Could you share which activity value was measured for `Cc1occc1C(=O)O/N=C(\N)c1ccccc1` ?
92.8

Could you share which activity value was measured for `COCCn1c(C)cc(C(=O)COC(=O)c2ccccc2Br)c1C` ?
76.5

Could you share which activity value was measured for `CCCCCCCC[n+]1cccc2c3ccccc3ccc21` ?
63.9

Could you share which activity value was measured for CC1(C)Oc2cc3oc(-c4cc(O)cc(O)c4)cc3cc2CC1O (centres undefined) ?
75.9

Could you share which activity value was measured for `Nc1nc(N)c2cc(Sc3ccc(Cl)cc3)ccc2n1` ?
75.5

Could you share which activity value was measured for `Cn1ncc2c(O/N=C(\N)c3ccc(C(C)(C)C)cc3)ncnc21` ?
98.8

Could you share which activity value was measured for `CN1/C(=C\C(=O)c2cccs2)Sc2ccccc21` ?
61

Could you share which activity value was measured for `Cc1ccc(-n2[nH]c(C)c(C=Nc3ccc4[nH]c(=O)[nH]c4c3)c2=O)cc1C` ?
41.5

Could you share which activity value was measured for `C#CCN(C[C@@H]1[C@@H](OC(=O)NCCCCCC)[C@@H](OC(=O)NCCCCCC)Cn2c(=O)ccc(=O)n21)S(=O)(=O)c1ccc(C)cc1` ?
92.3

Could you share which activity value was measured for `Cc1oc(-c2nc3ccccc3n2C)cc1C(=O)c1ccccc1` ?
81

Could you share which activity value was measured for `c1csc(-c2nnc(-c3ccc(N4CCOCC4)cc3)o2)c1` ?
54.2

Could you share which activity value was measured for `COc1cc2nc(N3CCNCC3)nc(N)c2cc1OC` ?
0.125

Could you share which activity value was measured for `C=CCNC(=O)c1ccc2c3n(nc2c1)-c1ccccc1CO3` ?
90.5

Could you share which activity value was measured for `O=C(Nc1ccc2nc3n(c(=O)c2c1)CCCCC3)c1c(F)ccc([N+](=O)[O-])c1F` ?
52.3

Could you share which activity value was measured for `O=C(/C=C/c1ccco1)Nc1ccccc1C(=O)O` ?
42.1

Could you share which activity value was measured for `COc1ccc(C(=O)Nc2ccccc2C(N)=O)cc1` ?
56.2

Could you share which activity value was measured for COc1ccccc1C(CNc1ccc(S(=O)(=O)N2CCCC2)cc1[N+](=O)[O-])N(C)C (centres undefined) ?
55.8

Could you share which activity value was measured for `Cc1ccc(-c2cc(C(=O)N3CCOCC3)no2)cc1` ?
65.2

Could you share which activity value was measured for `CCCn1c(Nc2nc3ccccc3n2C)nc2ccccc21` ?
50.4

Could you share which activity value was measured for `O=C(O)c1ccc(N/N=C/c2cn(-c3ccccc3)nc2-c2cccs2)cc1` ?
73.7

Could you share which activity value was measured for `CC(C)c1nnc(NC(=O)c2nc(S(=O)(=O)Cc3ccc(F)cc3)ncc2Cl)s1` ?
41.8

Could you share which activity value was measured for `COc1ccc(/C=C/C(=O)NC(=S)Nc2ccccn2)cc1` ?
37.3

Could you share which activity value was measured for `CCOC(=O)c1sc2nc3c(SCC(=O)O)cc(C(=O)c4ccccc4O)cn3c(=O)c2c1C` ?
42.5

Could you share which activity value was measured for `COc1cc2c3nnc(-c4ccc(F)cc4)c-3cn(Cc3ccccc3)c2cc1OC` ?
57.5

Could you share which activity value was measured for `O=C(CCN1C(=O)NC2(CCCC2)C1=O)Nc1ccc(-c2nc3ccccc3s2)cc1` ?
44.5

Could you share which activity value was measured for `O=C(/C=C/c1ccc(F)cc1)NC(=S)Nc1ccccc1C(=O)NC1CCCCC1` ?
-0.275

Could you share which activity value was measured for `Cc1nnc(NC(=O)c2nc(S(=O)(=O)Cc3ccccc3C)ncc2Cl)s1` ?
89.8

Could you share which activity value was measured for `Cc1cc(=O)n2[nH]c(-c3ccc(F)cc3)nc2n1` ?
42.6

Could you share which activity value was measured for `Cc1cnc(NC(=O)COc2ccccc2Cl)s1` ?
82.7

Could you share which activity value was measured for `COc1ccc2sc(N(CCCN(C)C)C(=O)c3ccc(S(=O)(=O)N4CCc5ccccc5C4)cc3)nc2c1` ?
69.3

Could you share which activity value was measured for `Cc1ccc(/C(N)=N/OC(=O)c2ccc(C)cc2Cl)cc1` ?
96.4

Could you share which activity value was measured for `CCn1nnc(NC(=O)c2ccc(C(C)(C)C)cc2)n1` ?
75.2

Could you share which activity value was measured for `O=C(CSC(=S)N1CCOCC1)c1ccccc1` ?
55.2

Could you share which activity value was measured for `Cc1cccc(NC(=O)c2ccc3c(c2)OCCO3)c1` ?
83.5

Could you share which activity value was measured for `Cc1cccc(CC(=O)Nc2cc(C)c3c(=O)oc4ccccc4c3n2)c1` ?
45.5

Could you share which activity value was measured for `COC(=O)c1c(NC(=O)c2ccc(OC(C)C)cc2)sc2c1CC(C)(C)NC2(C)C` ?
31.2

Could you share which activity value was measured for `Cc1[nH]cnc1C(=O)N/N=C/c1c(Cl)cccc1Cl` ?
57.6
